This listing pairs compounds with measured melting point.

>>> print(df.to_string())
                                   compound  value_observed
0  CC(=O)C(Cc1nsc2ccc(-n3c(=O)cc(C(F)(F)F)n(C)c3=O)cc12)C(=O)OC(C)(C)C (stereo not given)     76 to 78 °C

Fill in: melting point of O=C1CCC(c2ccc3c(c2)C2(CC2)C(=O)N3)=NN1 is ___
256 to 257 °C

Field entry: CCN1c2ncc(COc3ccccc3)cc2C(=O)N(C)c2ccc(Cl)nc21
140 to 141 °C

Field entry: CCOC(=O)CNC(=O)Oc1c(C)n(CCOC)ccc1=O
134 to 135 °C

---

This listing pairs compounds with measured melting point.

In [3]: df
Out[3]:
                                   compound  value_observed
0  COc1cccc(Cn2c(=O)c3c(Cl)cc(Cl)cc3n(Cc3ccccc3)c2=O)c1   106 to 108 °C
1    OC(Cn1ccnc1)(c1ccc(Cl)cc1)c1ccc(Cl)cc1   208 to 210 °C
2  Cc1nn(-c2cncc(F)c2)cc1-c1cccc(C(F)(F)F)n1   130 to 131 °C

# input for lookup
Fill in: melting point of COc1cc(OC)nc(C2(OC(C)=O)OC(=O)c3c(Cl)cccc32)n1 (stereo unspecified) is ___
213 to 215 °C

---

READOUT NAME: melting point

In [3]: df
Out[3]:
                                   compound  value_observed
0  CCCCOC(=O)c1ccc2c(c1)C(=O)NC(C(Cl)(Cl)Cl)O2 (centres undefined)   134 to 136 °C
1  N#CC(C#N)(OC(=O)c1ccc(Cl)c(Cl)c1)c1ccc(Cl)c(Cl)c1          110 °C
2            CC(=O)c1cc(Cl)ccc1Nc1ccc(O)cc1   158 to 161 °C
3  NCCNS(=O)(=O)c1cc(NC(=O)c2cnn3c(C(F)(F)F)cc(-c4ccc(C(F)(F)F)cc4)nc23)c(Cl)s1          195 °C
4      Cc1cc(=O)n(-c2ccc(C(F)(F)F)cc2)[nH]1          130 °C
5  Cc1cc(Br)cnc1CCCCNC1=NS(=O)(=O)c2cc([N+](=O)[O-])ccc21   235 to 242 °C
6  O=[N+]([O-])c1ccc(Cn2c(-c3ccc4c(c3)OCO4)nc3ccccc32)cc1   172 to 174 °C
7                    C[Si](C)(CCO)Cc1ccccc1   132 to 133 °C
8  CCOC(=O)COc1cc2cc(C(O)CC)sc2c(Cl)c1Cl (centres undefined)     69 to 70 °C
9  Cc1nc(N2CCN(Cc3cccc4cccnc34)C2=O)sc1C(=O)NCc1cccnc1   225 to 228 °C

Fill in: melting point of COc1ccc(C2=NN(CC=Cc3ccccc3)C(=O)C3CCCCC23)cc1OC (centres undefined) is ___
76 to 79 °C

Field entry: N#Cc1ccc(N2C(=O)CNC2=O)c2ccccc12
> 275 °C

Field entry: COC(=O)CCc1conc1-c1ccc(Cl)c(F)c1
57 to 58 °C

---

This listing pairs compounds with measured melting point.

Fill in: melting point of CS(=O)(=O)NCC(=O)CCN1CCC(C2c3ncc(Br)cc3CCc3cc(Cl)cc(Cl)c32)CC1 (single isomer, unassigned; (+)) is ___
110 to 113 °C

Field entry: COc1cc(C=O)c(Br)c(OC)c1OC
69 °C
